// data source = PubChem BioAssay (NCI)

- System: HOP-92 NSCLC
- experimentSummary: NCI-60 one-dose screen, 48 h
- testSettings: 10 µM unless noted
About 83,000 compounds went through this panel and 20% of them were active in at least one assay; those are over-represented in the sample as a whole. The source made the active and inactive calls. How the source made its calls: active means growth percent below 10; inactive means the rest.
Respond using exactly one of the listed classes: active, inactive

Example entries begin here.
Query :: What call does the record list for `CC(=O)c1c[nH]c2ccc(-c3ccnc(Nc4ccc(NC(=O)C5CCCC5)c(CN5CCOCC5)c4)n3)cc12` ?
Result :: active

Query :: What call does the record list for `CCN(CC)CCSCCCNc1c(C)cnc2cc(Cl)ccc12` ?
Result :: inactive

Query :: What call does the record list for `O=C(O)C(/C=C/c1ccco1)=N\Nc1nc(-c2ccc(Cl)cc2)cs1` ?
Result :: inactive

Now take the following compound into account.
Query :: What call does the record list for `CN1CCN(C(=O)[C@]2(C)CC[C@]3(C)CC[C@]4(C)C(=CC(=O)[C@@H]5[C@@]6(C)CCC(=O)NC(C)(C)[C@@H]6CC[C@]54C)[C@@H]3C2)CC1` ?
Result :: inactive
